system: Mus musculus; assay: Number of mice exhibiting toxicity out of four (4) mice in repeated subcutaneous pentylenetetrazole seizure test was measured by using rotarod test; type: organism-based; conditions: in vivo

[
  {
    "COMPOUND": "C[C@H]1CC[C@H](O)C([C@H](O)CC2CC(=O)NC(=O)C2)C1 (stereo partly drawn)",
    "Toxicity": 0
  },
  {
    "COMPOUND": "C[C@H]1CCCC(C(=O)CC2CC(=O)NC(=O)C2)C1=O (stereo partly drawn)",
    "Toxicity": 0
  },
  {
    "COMPOUND": "C[C@@H]1CC(C(=O)CC2CC(=O)N(C)C(=O)C2)C(=O)[C@@H](C)C1 (stereo partly drawn)",
    "Toxicity": 1
  },
  {
    "COMPOUND": "C[C@@H]1CC([C@H](O)CC2CC(=O)NC(=O)C2)C(=O)[C@@H](C)C1 (stereo partly drawn)",
    "Toxicity": "0 animals"
  },
  {
    "COMPOUND": "C[C@H]1CC([C@H](O)CC2CC(=O)NC(=O)C2)[C@@H](O)[C@@H](C)C1 (stereo partly drawn)",
    "Toxicity": 0
  },
  {
    "COMPOUND": "C[C@@H]1CCC(=O)C(C(=O)CC2CC(=O)NC2=O)C1 (stereo partly drawn)",
    "Toxicity": 1
  },
  {
    "COMPOUND": "O=C1CC(C[C@@H](O)C2CCCC[C@@H]2O)CC(=O)N1 (stereo partly drawn)",
    "Toxicity": 0
  },
  {
    "COMPOUND": "O=C1CC(CC(=O)C2CCCCC2=O)C(=O)N1 (stereo not drawn)",
    "Toxicity": 0
  }
]

###

system: Mus musculus; assay: Compound was tested for subcutaneous pentylenetetrazole seizure test in mice after administration intraperitoneally at 0.5h.; assay type: functional
Reported scMet values for the following compounds.

[
  {
    "COMPOUND": "C[C@H]1CC([C@H](O)CC2CC(=O)NC(=O)C2)[C@@H](O)[C@@H](C)C1 (stereo partly drawn)",
    "OUTPUT_UNIT": "mg/kg",
    "scMet": 100
  },
  {
    "COMPOUND": "C[C@@H]1CC(C(=O)CC2CC(=O)N(C)C(=O)C2)C(=O)[C@@H](C)C1 (stereo partly drawn)",
    "OUTPUT_UNIT": "mg/kg",
    "scMet": 600
  },
  {
    "COMPOUND": "C[C@@H]1CCC(=O)C(C(=O)CC2CC(=O)NC2=O)C1 (stereo partly drawn)",
    "OUTPUT_UNIT": "mg/kg",
    "scMet": 600
  },
  {
    "COMPOUND": "O=C1CC(CC(=O)C2CCCCC2=O)CC(=O)N1 (stereo not drawn)",
    "OUTPUT_UNIT": "mg/kg",
    "scMet": 600
  },
  {
    "COMPOUND": "O=C1CC(CC(=O)C2CCCCC2=O)C(=O)N1 (stereo not drawn)",
    "OUTPUT_UNIT": "mg/kg",
    "scMet": 600
  },
  {
    "COMPOUND": "C[C@H]1CCCC(C(=O)CC2CC(=O)NC(=O)C2)C1=O (stereo partly drawn)",
    "OUTPUT_UNIT": "mg/kg",
    "scMet": 300
  },
  {
    "COMPOUND": "O=C1CC(C[C@@H](O)C2CCCC[C@@H]2O)CC(=O)N1 (stereo partly drawn)",
    "OUTPUT_UNIT": "mg/kg",
    "scMet": 100
  },
  {
    "COMPOUND": "C[C@H]1CC[C@H](O)C([C@H](O)CC2CC(=O)NC(=O)C2)C1 (stereo partly drawn)",
    "OUTPUT_UNIT": "mg/kg",
    "scMet": 30
  }
]

###

Recorded measurements of Toxicity, one per entry
organism: Mus musculus; experiment: Number of mice exhibiting toxicity out of four (4) mice was measured by using rotarod test.; assay type: organism-based; conditions: in vivo

[
  {
    "MOLECULE": "C[C@H]1CCCC([C@H](O)CC2CC(=O)N(C)C(=O)C2)[C@H]1O (stereo partly drawn)",
    "Toxicity": 0
  },
  {
    "MOLECULE": "O=C1CC(C[C@@H](O)C2CCCC[C@@H]2O)CC(=O)N1 (stereo partly drawn)",
    "Toxicity": 0
  },
  {
    "MOLECULE": "C[C@H]1CC([C@H](O)CC2CC(=O)NC(=O)C2)[C@@H](O)[C@@H](C)C1 (stereo partly drawn)",
    "Toxicity": 1
  }
]

###

species: Mus musculus; test: Number of mice exhibiting toxicity out of four (4) mice was measured by using rotarod test.; format: organism-based; conditions: in vivo
Reported Toxicity by item:
MEASURED_METRIC: Toxicity

[
  {
    "COMPOUND": "C[C@H]1CC([C@H](O)CC2CC(=O)N(C)C(=O)C2)[C@@H](O)[C@@H](C)C1 (stereo not given in full)",
    "OBS_VALUE": 0
  },
  {
    "COMPOUND": "C[C@@H]1CC(C(=O)CC2CC(=O)N(C)C(=O)C2)C(=O)[C@@H](C)C1 (stereo not given in full)",
    "OBS_VALUE": 1
  },
  {
    "COMPOUND": "C[C@@H]1CC([C@H](O)CC2CC(=O)NC(=O)C2)C(=O)[C@@H](C)C1 (stereo not given in full)",
    "OBS_VALUE": 1
  },
  {
    "COMPOUND": "C[C@H]1CC[C@H](O)C([C@H](O)CC2CC(=O)N(C)C(=O)C2)C1 (stereo not given in full)",
    "OBS_VALUE": 4
  },
  {
    "COMPOUND": "O=C1CC(CC(=O)C2CCCCC2=O)C(=O)N1 (stereo not given)",
    "OBS_VALUE": 0
  },
  {
    "COMPOUND": "O=C1CC(CC(=O)C2CCCCC2=O)CC(=O)N1 (stereo not given)",
    "OBS_VALUE": 0
  },
  {
    "COMPOUND": "C[C@@H]1CCC(=O)C(C(=O)CC2CC(=O)NC2=O)C1 (stereo not given in full)",
    "OBS_VALUE": 2
  },
  {
    "COMPOUND": "C[C@@H]1CCc2c(c(CC3CC(=O)NC(=O)C3)nn2-c2ccccc2)C1",
    "OBS_VALUE": 0
  },
  {
    "COMPOUND": "C[C@H]1CC[C@H](O)C([C@H](O)CC2CC(=O)NC(=O)C2)C1 (stereo not given in full)",
    "OBS_VALUE": 0
  },
  {
    "COMPOUND": "C[C@H]1CCCC(C(=O)CC2CC(=O)NC(=O)C2)C1=O (stereo not given in full)",
    "OBS_VALUE": 0
  }
]
